molecular target: B1R receptor of the rat (bradykinin 1 receptor) (Rattus norvegicus); construct: host or cells: CHO K1 cells (rB1R cells); assay: FLIPR Ca2+ assay (Fluo-4) on CHO K1 cells stably transfected with the B1R gene of the rat; % activation and % inhibition at 10 μM; type: cell-based; conditions: CHO-K1, test substance 10 μM; CHO K1 rB1R cells; Ca2+ inflow after 100 nM Des-Arg9-bradykinin; read-out: B1R antagonism, rat [10 μM] % inhibition
Sequence (P97583 whole entry): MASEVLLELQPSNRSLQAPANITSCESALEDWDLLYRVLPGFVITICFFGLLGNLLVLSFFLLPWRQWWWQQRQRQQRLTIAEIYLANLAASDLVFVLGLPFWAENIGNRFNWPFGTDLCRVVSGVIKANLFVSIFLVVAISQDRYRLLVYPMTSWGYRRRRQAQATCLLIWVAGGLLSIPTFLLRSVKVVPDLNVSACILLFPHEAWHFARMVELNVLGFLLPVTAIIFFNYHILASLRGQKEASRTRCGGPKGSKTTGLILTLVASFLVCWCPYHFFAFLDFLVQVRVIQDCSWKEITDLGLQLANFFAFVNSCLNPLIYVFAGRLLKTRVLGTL
Counter-ions that a name gives are not always drawn.
OBSERVED PROPERTY: inhibition at 10 µM (%)

                                   compound  quantitative_result
0  COc1cc(C)c(S(=O)(=O)N2CCCC2COCC(=O)N2CCC(O)(c3ccc(Br)cc3)CC2)c(C)c1 (stereo not drawn)                  101
1  CN(CCOCC(=O)N1CCC(O)(c2cccnc2)CC1)S(=O)(=O)c1c(Cl)cc(Cl)cc1Cl                  103
2  Cc1cc(C)c(S(=O)(=O)N2CCCCC2COCC(=O)N2CCC(O)(Cc3ccccc3)CC2)c(C)c1 (stereo not drawn)                 86.5
3  O=C(COCC1Cc2ccccc2CN1S(=O)(=O)c1ccc(Cl)c(Cl)c1)N1CCC(O)(c2cccnc2)CC1 (stereo not drawn)                 93.7
4  Cc1cc(S(=O)(=O)N2CCCCC2CCC(=O)N2CCC(O)(c3cccnc3)CC2)c(C)cc1Cl (stereo not drawn) [Example 111, hydrochloride]                 85.9
5  COc1cc(C)c(S(=O)(=O)N(CCOCC(=O)N2CCC(O)(Cc3ccccc3)CC2)CC(C)C)c(C)c1C                  100

Attribution: patent US8580965B2
